setup-conditions: Ebola virus entry assay, ratio channel
Active and inactive are the calls of the source.
Outcome codes: yes (1) for active, no (0) for inactive

>>> df
                                    compound  discrete_label
 0  OC(CCN1CCCCC1)(c1ccccc1)C1CC2C=CC1C2 (stereo unspecified)          no (0)
 1            Oc1ccc(/C=C/c2cc(O)cc(O)c2)cc1          no (0)
 2  CCCCN1CCCC1C(=O)Nc1c(C)cc(C)cc1C (stereo unspecified)          no (0)
 3       O=c1[nH]c(=O)c2[nH]c(=O)[nH]c2[nH]1          no (0)
 4             O=C(Cn1ccnc1[N+](=O)[O-])NCCO          no (0)
 5  O=C(NC1CCN(CCc2c[nH]c3ccccc23)CC1)c1ccccc1         yes (1)
 6  O=C(CCCN1CCC(O)(c2ccc(Br)cc2)CC1)c1ccc(F)cc1         yes (1)
 7  CNC(C)Cc1ccc2c(c1)OCO2 (stereo unspecified)          no (0)
 8                              Nc1ccc(N)cc1          no (0)
 9   NS(=O)(=O)c1cc(C(=O)O)c(NCc2ccco2)cc1Cl          no (0)
10  CCn1c(=O)c2c(nc(C=Cc3ccc(OC)c(OC)c3)n2C)n(CC)c1=O          no (0)
11           NNC(=O)CP(=O)(c1ccccc1)c1ccccc1          no (0)
12          C[N+](C)(C)CCCCCCCCCC[N+](C)(C)C          no (0)
13  O=C(O)CN(CCOCCOCCN(CC(=O)O)CC(=O)O)CC(=O)O          no (0)
14              CCc1cc(OC)c(C[C@H](C)N)cc1OC         yes (1)
15  CCOC(=O)[C@H](CCc1ccccc1)N[C@@H](C)C(=O)N1C(=O)N(C)C[C@H]1C(=O)O          no (0)

====

Test system: OV90
procedure-text: Primary qHTS to identify gynecologic anti-cancer compounds using libraries of approved drugs and bioactive compounds (AID 1345084); further: nearly all actives have a fitted effect of over 55% in size
setup-conditions: Gynecologic cancer cell panel viability, ATPlite luminescence, 48 h; series mostly up to 57.5 µM
From the text: National Center for Advancing Translational Sciences [NCATS] Assay Overview: Chemotherapeutic drug responses vary from cancer to cancer and from patient to patient. […] ATPlite is a luminescence based assay reliant on the conversion of a luciferase substrate to light in the presence of ATP. As a cytotoxic compound will suppress growth and decrease the number of cells, the concentration of ATP will decrease, and less light signal will be detected in the well. […]
Records with an inconclusive call do not appear. Calls of active or inactive are those of the source. Calls follow the shape of the dose curve; as a rule, active = well fitted cell-killing curve with a large enough effect; inconclusive = small, poorly fitted or top-dose-only effect, or effect the other way; inactive = flat fitted curve, though single readings scatter.
Outcome codes: TRUE = active, FALSE = inactive

>>> df
                                   compound  study_target  discrete_label
0        Cc1ccc([N+](=O)[O-])[c]2c1[O][Hg]2          OV90            TRUE
1   CCOC(=O)c1ncn2c1CN(C)C(=O)c1c(I)cccc1-2          OV90           FALSE
2  N#Cc1nn(-c2c(Cl)cc(C(F)(F)F)cc2Cl)c(N)c1S(=O)C(F)(F)F (configuration not stated)          OV90           FALSE
3  C[N+]1(CCC(C(N)=O)(c2ccccc2)c2ccccc2)CCCCC1          OV90           FALSE
4                              C1CN2CCC1CC2          OV90            TRUE
5  CCOC(=O)c1cncn1C(C)c1ccccc1 (configuration not stated)          OV90           FALSE
6       CCC(=O)C(CCN(C)C)(c1ccccc1)c1ccccc1          OV90           FALSE
